FYI, the data here is from patent US20240059799A1.

In this section we review reported Bioactivity relative to TL1A-0002 values for a set of binders.
# TARGET_OF_ASSAY: T1, recombinant human TL1A (human, UniProt O95150 71-251)
# T1 construct: Homotrimeric cytokine; biotinylated with Sulfo-NHS-biotin where captured for SPR, coated unlabelled in ELISA, soluble in bioassays; also called TNFSF15
# T1 chain: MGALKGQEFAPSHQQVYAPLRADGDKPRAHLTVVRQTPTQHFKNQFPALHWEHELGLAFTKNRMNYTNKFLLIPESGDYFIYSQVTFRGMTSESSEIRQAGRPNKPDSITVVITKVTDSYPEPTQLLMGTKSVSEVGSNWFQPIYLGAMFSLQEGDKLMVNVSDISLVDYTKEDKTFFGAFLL
# PROCEDURE_SUMMARY: competition ELISA, coated TL1A, competitor bio-TL1A-0002

BINDER	Bioactivity relative to TL1A-0002, fold
TL1A-0275 (antibody, human IgG1, kappa, V domains shown, human IgG1 effector-function-minimized/kappa) VH: QVQLVQSGAEVKKPGASVKVSCKASGYDFSYYGISWVRQAPGQGLEWMGWISTYNTGTHYAPSLQGRVTMTTDTSTSTAYMELRSLRSDDTAVYYCARESYYGSGAHRGGMDVWGQGTTVTVSS VL: DIQMTQSPSSLSASVGDRVTITCRASQSVSSYLAWYQQKPGKAPKLLIYDASNRATGVPSRFSGSGSGTDFTLTISSLQPEDFATYYCQQRSNWPWTFGQGTKVEIKR	1.8
TL1A-0278 (antibody, human IgG1, kappa, V domains shown, human IgG1 effector-function-minimized/kappa) VH: QVQLVQSGAEVKKPGASVKVSCKASGYDFSYYGISWVRQAPGQGLEWMGWISTYNTVTHYAPSLQGRVTMTTDTSTSTAYMELRSLRSDDTAVYYCARESYYGSGAFRGGMDVWGQGTTVTVSS VL: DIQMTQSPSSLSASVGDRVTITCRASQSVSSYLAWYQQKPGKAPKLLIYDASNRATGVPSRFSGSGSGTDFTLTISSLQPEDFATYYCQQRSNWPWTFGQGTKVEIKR	1.8
TL1A-0308 (antibody, human IgG1, kappa, V domains shown, human IgG1 effector-function-minimized/kappa) VH: QVQLVQSGAEVKKPGASVKVSCKASGYDFTYYGIGWVRQAPGQGLEWMGWISTYNTNTHYAPSLQGRVTMTTDTSTSTAYMELRSLRSDDTAVYYCARESYYGSGAFRGGMDVWGQGTTVTVSS VL: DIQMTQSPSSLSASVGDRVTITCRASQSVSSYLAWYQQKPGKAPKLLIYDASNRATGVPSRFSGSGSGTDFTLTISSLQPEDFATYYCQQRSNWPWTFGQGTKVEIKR	2.8
